From: patent US11685732B2

- tested system: KAT-6A (Homo sapiens (Human), UniProt Q92794)
- Sequence (Q92794 other isoform, or with tags, fused parts or gaps): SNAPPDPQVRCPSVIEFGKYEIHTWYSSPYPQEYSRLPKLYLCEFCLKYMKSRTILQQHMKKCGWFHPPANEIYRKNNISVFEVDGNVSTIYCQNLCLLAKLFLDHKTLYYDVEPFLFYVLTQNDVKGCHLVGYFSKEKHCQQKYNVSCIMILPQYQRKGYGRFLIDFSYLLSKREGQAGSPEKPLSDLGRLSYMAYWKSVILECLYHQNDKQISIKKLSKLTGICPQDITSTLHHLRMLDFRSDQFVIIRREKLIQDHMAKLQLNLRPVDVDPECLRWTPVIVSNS
- assay name: KAT-6A biochemical inhibition assay (SAMDI mass spectrometry)
- measurement conditions: Table 5
- Description: KAT-6A. Enzyme assay buffer was 50 mM Tris pH 8.0, 0.002% Tween20, 0.005% bovine skin gelatin, and 1 mM dithiothreitol (DTT). For determination of IC50 values, compounds were serially diluted with 2% (v/v) DMSO in the final reaction, pre-incubating each dilution of each compound with 40 μL of assay buffer containing KAT-6A enzyme (12.5 nM final concentration). 10 μL of assay buffer containing 1 μM peptide substrate and 1 μM acetyl coenzyme A (final concentrations) was added. […]
pIC50: −log10 of the molar value.
pIC50 values for the compounds below.

>  <compound>
Cc1cccc(-c2cc(Cl)c(F)c(C(=O)NNS(=O)(=O)CC3CN(C)CCN3)c2)c1 (stereo not shown)

>  <tested system>
KAT-6A (Homo sapiens (Human), UniProt Q92794)

>  <pIC50>
4.30 to 5.00

$$$$

# input for lookup
Task item: I am curious: what pIC50 value has been reported for `Cc1c(-c2ccccc2)ccc(F)c1C(=O)NNS(=O)(=O)c1ccc(Cl)cc1` ?
Reply: 4.30 to 5.00

---

- tested system: KAT-8 (Homo sapiens (Human))
- Sequence (Q9H7Z6 other isoform, or with tags, fused parts or gaps): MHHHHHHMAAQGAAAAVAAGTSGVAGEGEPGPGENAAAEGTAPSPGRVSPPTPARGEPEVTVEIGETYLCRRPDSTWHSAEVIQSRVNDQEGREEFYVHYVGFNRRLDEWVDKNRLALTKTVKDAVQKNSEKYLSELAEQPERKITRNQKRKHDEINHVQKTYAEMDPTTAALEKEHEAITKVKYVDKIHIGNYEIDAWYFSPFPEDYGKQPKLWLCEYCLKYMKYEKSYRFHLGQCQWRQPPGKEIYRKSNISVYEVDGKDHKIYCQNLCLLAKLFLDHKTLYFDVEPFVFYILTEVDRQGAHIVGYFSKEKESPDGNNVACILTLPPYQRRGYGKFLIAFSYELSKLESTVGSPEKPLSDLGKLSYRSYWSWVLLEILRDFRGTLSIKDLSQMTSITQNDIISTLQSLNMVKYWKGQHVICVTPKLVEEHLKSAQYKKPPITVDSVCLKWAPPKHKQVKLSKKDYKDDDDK
- assay name: KAT-8 biochemical inhibition assay (SAMDI mass spectrometry)
pIC50: −log10 of the molar value.
measured parameter: pIC50

Illustrative cases are given below, each with its answer.
>  <compound>
CC(=O)N1C[C@H](CS(=O)(=O)NNC(=O)c2cc(-c3cn(C)cn3)cc(Cl)c2F)[C@@H](C)C1

>  <pIC50>
4.30 to 5.00

$$$$
>  <compound>
Cn1cnc(-c2cc(Cl)c(F)c(C(=O)NNS(=O)(=O)C[C@H]3CC[C@H](NC(=O)Cc4ccncc4)CC3)c2)c1

>  <pIC50>
4.30 to 5.00

$$$$
>  <compound>
Cn1cnc(-c2cc(Cl)c(F)c(C(=O)NNS(=O)(=O)C[C@H]3CC[C@H](NC(=O)C4CCC4)CC3)c2)c1

>  <pIC50>
4.30 to 5.00

$$$$
>  <compound>
Cc1ncn(C)c1-c1cc(Cl)c(F)c(C(=O)NNS(=O)(=O)CC2CCCCC2)c1

>  <pIC50>
< 4.00

$$$$
>  <compound>
Cn1cnc(-c2cc(Cl)c(F)c(C(=O)NNS(=O)(=O)CC3CCC4CCC3N4C(=O)OC(C)(C)C)c2)c1 (centres unmarked)

>  <pIC50>
4.30 to 5.00

$$$$

Task item: I am curious: what pIC50 value has been reported for `Cn1cnc(-c2cc(Cl)c(F)c(C(=O)NNS(=O)(=O)C[C@H]3CCC[C@@H](N)C3)c2)c1` ?
Reply: 4.30 to 5.00

Task item: I am curious: what pIC50 value has been reported for CCNC(=O)NC1CCCC(CS(=O)(=O)NNC(=O)c2cc(-c3cn(C)cn3)cc(Cl)c2F)C1 (centres unmarked) ?
Reply: 4.30 to 5.00

Task item: I am curious: what pIC50 value has been reported for `Cn1cnc(-c2cc(Cl)c(F)c(C(=O)NNS(=O)(=O)Cc3ccccc3)c2)c1` ?
Reply: 4.30 to 5.00

Task item: I am curious: what pIC50 value has been reported for `Cn1cnc(-c2cc(Cl)c(F)c(C(=O)NNS(=O)(=O)CC3CCCCC3)c2)c1` ?
Reply: 4.30 to 5.00

Task item: I am curious: what pIC50 value has been reported for Cn1cnc(-c2cc(Cl)c(F)c(C(=O)NNS(=O)(=O)CC3CCCN(C(=O)C4CCC4)C3)c2)c1 (centres unmarked) ?
Reply: < 4.00

Task item: I am curious: what pIC50 value has been reported for `Cc1cc(-c2cn(CCO)cn2)cc(C(=O)NNS(=O)(=O)CC2CCOCC2)c1F` ?
Reply: < 4.00

Task item: I am curious: what pIC50 value has been reported for `CCNC(=O)N[C@H]1C[C@@H](CS(=O)(=O)NNC(=O)c2cc(-c3cn(C)cn3)cc(Cl)c2F)C1` ?
Reply: 4.30 to 5.00

Task item: I am curious: what pIC50 value has been reported for COCCN(Cc1ccc(OC)cc1)C(=O)N1CCCC(CS(=O)(=O)NNC(=O)c2cc(-c3cn(C)cn3)cc(Cl)c2F)C1 (centres unmarked) ?
Reply: 4.30 to 5.00

Task item: I am curious: what pIC50 value has been reported for CC(C1CCCCC1)S(=O)(=O)NNC(=O)c1cc(-c2cn(C)cn2)cc(Cl)c1F (centres unmarked) ?
Reply: 4.30 to 5.00

Task item: I am curious: what pIC50 value has been reported for Cn1cnc(-c2cc(Cl)c(F)c(C(=O)NNS(=O)(=O)CC3CCCN(S(=O)(=O)C4CC4)C3)c2)c1 (centres unmarked) ?
Reply: 4.30 to 5.00

Task item: I am curious: what pIC50 value has been reported for CC(C)C(=O)NC1CCCC(CS(=O)(=O)NNC(=O)c2cc(-c3cn(C)cn3)cc(Cl)c2F)C1 (centres unmarked) ?
Reply: 4.30 to 5.00

Task item: I am curious: what pIC50 value has been reported for CNC(=O)NC1CCC(CS(=O)(=O)NNC(=O)c2cc(-c3cn(C)cn3)cc(Cl)c2F)C1 (centres unmarked) ?
Reply: 4.30 to 5.00

Task item: I am curious: what pIC50 value has been reported for `Cn1cnc(-c2cc(Cl)c(F)c(C(=O)NNS(=O)(=O)C[C@H]3CCOC3)c2)c1` ?
Reply: 4.30 to 5.00

Task item: I am curious: what pIC50 value has been reported for Cn1cnc(-c2cc(Cl)c(F)c(C(=O)NNS(=O)(=O)CC3CCCC(NC(=O)c4ccccc4)C3)c2)c1 (centres unmarked) ?
Reply: 4.30 to 5.00

Task item: I am curious: what pIC50 value has been reported for `Cc1ncc(-c2cc(Cl)c(F)c(C(=O)NNS(=O)(=O)CC3CCOCC3)c2)n1C` ?
Reply: < 4.00
